Hello, the source for this data is paper PMC8613358, in case you need it.

biological target: P. aeruginosa RmlA (Pseudomonas aeruginosa); construct: made in house; experiment: In vitro RmlA inhibition assay (BIOMOL Green phosphate detection); type: biochemical; settings: LE = pIC50/number of heavy atoms
Item-by-item account of LE (Ligand efficiency)
Format: numeric value only, no unit, no commentary.

Example results:
>  <Chem smiles>
CNCCCNc1c(N(C)S(=O)(=O)c2ccccc2)c(=O)[nH]c(=O)n1Cc1ccc(Br)cc1

>  <Quantitative result>
0.30

$$$$
>  <Chem smiles>
CN(c1c(NCCCn2cc(CN)nn2)n(Cc2ccccc2)c(=O)[nH]c1=O)S(=O)(=O)c1ccccc1

>  <Quantitative result>
0.21

$$$$
>  <Chem smiles>
CN(c1c(N)n(Cc2ccc(Br)cc2)c(=O)[nH]c1=O)S(=O)(=O)c1ccccc1

>  <Quantitative result>
0.37

$$$$

Task: Record request: LE (Ligand efficiency) value, item CN(c1c(NCCCCN)n(Cc2ccc(Br)cc2)c(=O)[nH]c1=O)S(=O)(=O)c1ccccc1
Output: 0.28

Task: Consider the compound CN(c1c(NCCCCCN)n(Cc2ccc(Br)cc2)c(=O)[nH]c1=O)S(=O)(=O)c1ccccc1 and give its measured LE (Ligand efficiency).
Output: 0.27

====

target: P. aeruginosa RmlA (Pseudomonas aeruginosa, UniProt Q9HU22); experiment: In vitro RmlA inhibition assay (BIOMOL Green phosphate detection); conditions: ± SD, n = 3; 15 nM recombinant RmlA, 5 μM dTTP, 5 μM G-1-P
Sequence (Q9HU22 1-293): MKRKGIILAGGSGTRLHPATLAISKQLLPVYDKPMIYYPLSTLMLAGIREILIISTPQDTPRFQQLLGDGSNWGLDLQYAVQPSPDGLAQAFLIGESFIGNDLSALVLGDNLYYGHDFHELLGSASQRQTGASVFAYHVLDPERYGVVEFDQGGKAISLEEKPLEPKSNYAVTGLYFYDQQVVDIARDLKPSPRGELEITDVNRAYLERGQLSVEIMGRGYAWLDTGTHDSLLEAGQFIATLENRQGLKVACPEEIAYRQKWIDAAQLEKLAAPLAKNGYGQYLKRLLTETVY
Quantity name: pIC50
Conceptually, pIC50 converts a concentration in mol/L into minus its log10.

>  <Chem smiles>
CN(c1c(N)n(Cc2ccc(Br)cc2)c(=O)[nH]c1=O)S(=O)(=O)c1ccccc1

>  <pIC50>
7.47

$$$$
>  <Chem smiles>
CN(c1c(NCCCCCN)n(Cc2ccc(Br)cc2)c(=O)[nH]c1=O)S(=O)(=O)c1ccccc1

>  <pIC50>
6.50

$$$$
>  <Chem smiles>
CN(c1c(NCCCCN)n(Cc2ccc(Br)cc2)c(=O)[nH]c1=O)S(=O)(=O)c1ccccc1

>  <pIC50>
6.52

$$$$
>  <Chem smiles>
CN(c1c(NCCCn2cc(CN)nn2)n(Cc2ccccc2)c(=O)[nH]c1=O)S(=O)(=O)c1ccccc1

>  <pIC50>
5.61

$$$$

Task: Any idea what its pIC50 is? The molecule is CNCCCNc1c(N(C)S(=O)(=O)c2ccccc2)c(=O)[nH]c(=O)n1Cc1ccc(Br)cc1
Output: 6.07

====

Where a name gives a salt, the structure may show the parent alone.
melting point values, listed per item

Consider the following illustrative entries.
>  <Compound>
CNCCCNc1c(N(C)S(=O)(=O)c2ccccc2)c(=O)[nH]c(=O)n1Cc1ccc(Br)cc1 (as salt: TFA)

>  <Result>
294 to 297 °C

$$$$
>  <Compound>
CN(c1c(NCCCCCN)n(Cc2ccc(Br)cc2)c(=O)[nH]c1=O)S(=O)(=O)c1ccccc1

>  <Result>
317 to 319 °C

$$$$
>  <Compound>
CNCCNc1c(N(C)S(=O)(=O)c2ccccc2)c(=O)[nH]c(=O)n1Cc1ccc(Br)cc1 (as salt: TFA)

>  <Result>
283 to 286 °C

$$$$
>  <Compound>
CN(c1c(NCCCn2cc(CN)nn2)n(Cc2ccccc2)c(=O)[nH]c1=O)S(=O)(=O)c1ccccc1

>  <Result>
295 to 297 °C

$$$$

Proceed to the following item.
Task: What measured melting point goes with CN(c1c(NCCCCN)n(Cc2ccc(Br)cc2)c(=O)[nH]c1=O)S(=O)(=O)c1ccccc1 ?
Output: 311 to 313 °C
